Entry source: paper PMC7822874

- Test system: Plasmodium falciparum Dd2 asexual blood stage parasites
- method_summary: microbe, parasite or virus in culture
- Set-up: species or system Plasmodium falciparum Dd2 in human erythrocytes; single determination (one 11-point concentration-response curve)
- details: Plasmodium falciparum, DD2, Erythrocyte, 72 h; read-out: AC50
Strictly below 5 µM in AC50: t. Otherwise: f.

INSERT INTO results (compound, group_label) VALUES
  ('COc1ccccc1CNC[C@@H]1C=C(C)[C@H](Cc2nc3cccc(C)c3[nH]2)C[C@H]1C(C)C', 'f'),
  ('CCOc1ccc(C2C(C(=O)Nc3ccccc3)=C(C)N=c3sc(=Cc4cccc(OCC(=O)O)c4)c(=O)n32)cc1 (centres unmarked)', 'f'),
  ('O=C(c1ccc2c(c1)OCO2)N1CCC2(CC1)COc1ccccc1CN2', 'f'),
  ('OC(COc1ccccc1CNCCc1ccccc1)CN1CCSCC1 (centres unmarked)', 't'),
  ('CS(=O)(=O)c1ccc(C(=O)Nc2ccc(-c3nc4ccccc4[nH]3)cc2)cc1', 'f'),
  ('COc1ccc(NC(=O)C(c2ccc(Cl)cc2)C(C)C)cn1 (centres unmarked)', 't'),
  ('CC(OC(=O)CCc1cc(C(C)(C)C)c(O)c(C(C)(C)C)c1)C(=O)NC1CC1 (centres unmarked)', 't'),
  ('CCCCn1cc([S+](=O)([O-])c2ccc(Cl)cc2)c(=O)c2cc(F)c(N3CCCCC3)cc21', 'f'),
  ('O=C1C=C(c2cccc(CO)c2)C[C@@H](c2ccc(Cl)cc2)C1', 't'),
  ('CCCCOCc1cc(CN2CCN(c3cccc(Cl)c3)CC2)c(O)c2ncccc12', 'f'),
  ('Cc1cccn2c(=O)c3cc(C(=O)NC4CCCC4)c(=N)n(CCc4ccccc4)c3nc12', 't'),
  ('CCN(c1ccccc1)[S+](=O)([O-])c1cc(Br)cc2c1N(C(=O)C1CC1)CC2', 't'),
  ('O=C(Nc1ccc2c(N3CCOCC3)ncnc2c1)c1cccc(Br)c1', 't'),
  ('OC(c1cc(-c2ccc(C(F)(F)F)cc2)nc(C(F)(F)F)c1)C1CCCCN1 (centres unmarked)', 't'),
  ('C=C[C@]1(C)C[C@@H](OC(=O)CSC(C)(C)CNC(=O)[C@H](N)C(C)C)[C@]2(C)[C@H](C)CC[C@]3(CCC(=O)[C@H]32)[C@@H](C)[C@@H]1O', 'f'),
  ('COc1ccc(-c2noc(-c3cccn3CC(=O)Nc3ccccc3)n2)cc1F', 't'),
  ('COc1ccc2c(CNCc3ccccc3OC)c(C(=O)O)n(Cc3ccc(F)cc3Cl)c2c1', 'f'),
  ('Cc1cccc(Oc2nc(-c3ccccn3)nc3ccccc23)c1', 'f'),
  ('CCC(CC)c1cc([C@H]2CN3CC[C@H]2C[C@@H]3CNC(C)=O)nc(-c2ccncc2)n1', 'f'),
  ('CCN(CC)CCNC(=O)c1ccc(NC(=O)c2ccc(S(=O)(=O)N3CCCCCC3)cc2)cc1', 'f'),
  ('N#Cc1ccc(CN2CC[C@@H]3C(=O)NCCCCCCN(Cc4ccncc4)[C@@H]3C2)cc1', 'f'),
  ('CC(=O)N(C)C1=C(N2CCOCC2)C(=O)c2ccccc2C1=O', 't'),
  ('Cc1ccc(CN2CCC(CNC(=O)c3cnn(-c4ccc(C)cc4)c3C3CCN(C(=O)OC(C)(C)C)CC3)CC2)cc1', 'f'),
  ('O=C(Nc1nc(-c2ccccn2)cs1)Nc1ccc(F)cc1F', 'f'),
  ('COc1cc(-c2nc(-c3c(C)noc3C)cc3c2cc(C)n3CCN(C)C)ccn1', 'f'),
  ('Cc1cc(C(F)(F)F)nn1CC(=O)NCCc1ncc(C)n1CC1CC1', 'f'),
  ('CCc1cccc2c(C(CC(=O)N3CCC(C)CC3)c3cccc(C)c3)c[nH]c12 (centres unmarked)', 't'),
  ('Cc1oc2ccc(O)c(CN3CCCCCC3)c2c1C(=O)Nc1cccc(Cl)c1C', 't'),
  ('O=C1C2=C(Nc3ccccc3SC2c2ccco2)c2ccccc21 (centres unmarked)', 't'),
  ('CCOC(=O)CCCCC(=O)c1[nH]c(=O)[nH]c1Cn1ccnc1', 't'),
  ('COc1cc(C2CC(=O)Nc3cc4c(cc32)OCCO4)cc(Br)c1OC (centres unmarked)', 'f'),
  ('O=C(NCC1CCCCC1)c1cc2ccccc2cc1O', 'f');
